- System: OVCAR-5 ovarian
- Experiment summary: NCI tumour cell line growth inhibition, 48 h
Recorded metric: GI50

Record excerpt, results attached:
>  <Compound>
C[C@H](CCCNCCCNCCCN)[C@H]1CC[C@H]2[C@@H]3[C@H](OCCCN)C[C@H]4C[C@H](OCCCN)CC[C@]4(C)[C@H]3C[C@H](OCCCN)[C@]12C

>  <System under test>
OVCAR-5 ovarian

>  <GI50>
17.5 µM

$$$$
>  <Compound>
CN1CC(CNC(=O)OCc2ccccc2)CC2c3cccc4c3c(cn4C)CC21 (stereo unspecified)

>  <System under test>
OVCAR-5 ovarian

>  <GI50>
1.98 µM

$$$$
>  <Compound>
Cc1cc(Oc2ccc3nc(COc4ccc(CC5SC(=O)NC5=O)cc4)n(C)c3c2)cc(C)c1N (stereo unspecified)

>  <System under test>
OVCAR-5 ovarian

>  <GI50>
> 63.7 µM

$$$$
>  <Compound>
NC1=NCCN1CC(=O)O

>  <System under test>
OVCAR-5 ovarian

>  <GI50>
> 10000 µM

$$$$
>  <Compound>
CCc1ccc2c(c1)N(CCO)C1=C(C(=O)OC1)C2c1cccc(Cl)c1 (stereo unspecified)

>  <System under test>
OVCAR-5 ovarian

>  <GI50>
4.61 µM

$$$$
>  <Compound>
O=C1OC(c2ccccc2)(c2cc(Br)c(O)c(Br)c2)c2ccccc21 (stereo unspecified)

>  <System under test>
OVCAR-5 ovarian

>  <GI50>
31.8 µM

$$$$

Please look at the items below and tell me GI50 for each one, in order.
1. CC[C@@]1(O)C(=O)OCc2c1cc1n(c2=O)Cc2c-1nc1cc3c(cc1c2C)OCO3
2. CCOC(=O)/C(=C(/C)NCC(C)C)c1cc(O)c(O)c2c(C)cc(=O)[nH]c12
3. CCN(CC)CCCC(C)N=c1cc(Nc2cc(=NC(C)CCCN(CC)CC)c3cc(OC)ccc3o2)oc2ccc(OC)cc12 (stereo unspecified)
4. Cc1cc(O)cc(C)c1/C=C/c1cncc(-c2nn[nH]n2)c1
5. CN(C)CCCNC(=O)c1cncnc1Nc1ccc(OCc2cccc(F)c2)c(Cl)c1

1: 0.0694 µM; 2: 64.7 µM; 3: 0.89 µM; 4: > 25 µM; 5: 1.67 µM
